Target: hM3 (Homo sapiens)
Sequence (P20309 whole entry): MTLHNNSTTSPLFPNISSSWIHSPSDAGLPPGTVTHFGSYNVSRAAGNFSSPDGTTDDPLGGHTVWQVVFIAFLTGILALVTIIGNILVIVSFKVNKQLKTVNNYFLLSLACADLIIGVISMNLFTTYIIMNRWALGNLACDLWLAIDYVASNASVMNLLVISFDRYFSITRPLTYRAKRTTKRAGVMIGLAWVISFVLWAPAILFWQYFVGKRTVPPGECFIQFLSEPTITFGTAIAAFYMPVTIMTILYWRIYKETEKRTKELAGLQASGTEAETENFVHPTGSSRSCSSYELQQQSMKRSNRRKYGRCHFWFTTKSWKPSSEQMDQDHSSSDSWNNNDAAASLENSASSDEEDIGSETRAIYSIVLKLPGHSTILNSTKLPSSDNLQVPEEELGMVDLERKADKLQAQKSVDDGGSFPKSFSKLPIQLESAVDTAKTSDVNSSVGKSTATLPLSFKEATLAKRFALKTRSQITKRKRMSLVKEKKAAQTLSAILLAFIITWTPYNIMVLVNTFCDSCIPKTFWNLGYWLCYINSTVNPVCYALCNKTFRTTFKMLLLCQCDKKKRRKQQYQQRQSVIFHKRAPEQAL
Test: Competitive [3H]NMS radioligand binding, CHO-K1 membranes expressing hM3
Conditions: [3H]NMS, CHO-hM3 cell membrane preparations; read-out: Affinity: Ki ± SD hM3
MEASUREMENT_LABEL: Ki (nM)
Kindly provide the numeric value in nM only, without the unit symbol.

Retrieve Ki on hM3 (Homo sapiens); query CN1CCC=C(C(=O)OC(c2ccccc2)c2cccc(O)c2)C1 (stereo not drawn) [Compound 17b]
20.4

Retrieve Ki on hM3 (Homo sapiens); query CN1CCC=C(C(=O)OC(c2ccccc2)c2ccc(CO)cc2)C1 (stereo not drawn) [Compound 10c]
150

Retrieve Ki on hM3 (Homo sapiens); query CN1CCC=C(C(=O)OCc2cccc(O)c2)C1 [Compound 18b]
188

Retrieve Ki on hM3 (Homo sapiens); query CN1CCC=C(C(=O)OCc2ccc(CO)cc2)C1
663

Retrieve Ki on hM3 (Homo sapiens); query CN1CCC=C(C(=O)OCC(O)(c2ccccc2)c2ccccc2)C1
283

Retrieve Ki on hM3 (Homo sapiens); query CN1CCC=C(C(=O)OC(c2ccccc2)c2cccc(CO)c2)C1 (stereo not drawn) [Compound 10b]
70.4

###

Target: hM1 (Homo sapiens)
Sequence (P11229 1-460): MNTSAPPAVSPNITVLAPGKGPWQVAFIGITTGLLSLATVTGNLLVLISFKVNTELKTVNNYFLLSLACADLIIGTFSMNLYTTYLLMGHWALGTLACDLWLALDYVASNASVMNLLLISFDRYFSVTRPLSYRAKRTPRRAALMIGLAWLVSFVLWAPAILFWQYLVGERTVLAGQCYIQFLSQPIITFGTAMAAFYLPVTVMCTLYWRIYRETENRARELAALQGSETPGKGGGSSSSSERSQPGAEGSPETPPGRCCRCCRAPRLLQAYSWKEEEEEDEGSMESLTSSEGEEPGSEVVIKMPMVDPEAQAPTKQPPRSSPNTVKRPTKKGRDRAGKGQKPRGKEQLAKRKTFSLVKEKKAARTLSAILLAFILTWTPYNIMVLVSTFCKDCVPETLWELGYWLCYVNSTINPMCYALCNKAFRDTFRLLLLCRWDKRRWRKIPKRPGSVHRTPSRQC
Experiment: Competitive [3H]NMS radioligand binding, CHO-K1 membranes expressing hM1
Settings: displacement of [3H]NMS, single ligand concentration corresponding to a Ki value of 1 µM (Cheng-Prusoff)
MEASUREMENT_LABEL: Displacement ± SD hM1 (%)
Kindly provide the numeric value in % only, without the unit symbol.

Recall and state the measured Displacement ± SD hM1 for CN1CCC=C(C(=O)OCc2cccc(CO)c2)C1 .
31

Recall and state the measured Displacement ± SD hM1 for CN1CCC=C(C(=O)Oc2ccccc2-c2ccccc2O)C1 .
37

Recall and state the measured Displacement ± SD hM1 for CN1CCC=C(C(=O)OC(CO)c2ccccc2)C1 (stereo not shown) .
61

Recall and state the measured Displacement ± SD hM1 for CN1CCC=C(C(=O)OCc2ccccc2CO)C1 .
66

###

Biological target: hM1 (Homo sapiens)
Sequence (P11229 1-460): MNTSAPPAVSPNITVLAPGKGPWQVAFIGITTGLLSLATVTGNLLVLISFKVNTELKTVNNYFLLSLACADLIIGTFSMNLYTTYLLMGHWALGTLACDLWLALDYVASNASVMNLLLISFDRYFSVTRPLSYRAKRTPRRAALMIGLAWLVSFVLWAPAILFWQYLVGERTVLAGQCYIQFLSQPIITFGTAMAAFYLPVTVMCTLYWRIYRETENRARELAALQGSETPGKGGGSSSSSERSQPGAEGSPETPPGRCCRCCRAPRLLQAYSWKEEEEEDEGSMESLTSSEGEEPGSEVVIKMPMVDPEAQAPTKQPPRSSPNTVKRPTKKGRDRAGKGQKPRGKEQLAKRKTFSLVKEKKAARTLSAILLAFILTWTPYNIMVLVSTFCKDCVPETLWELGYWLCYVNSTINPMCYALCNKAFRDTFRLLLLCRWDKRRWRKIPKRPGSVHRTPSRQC
Assay: Competitive [3H]NMS radioligand binding, CHO-K1 membranes expressing hM1
Details: ratio of the Ki values hM5/hM1
MEASUREMENT_LABEL: x-Fold Selectivity for hM1 vs. hM5 (x-fold)
Kindly provide the numeric value in x-fold only, without the unit symbol.

Recall and state the measured x-Fold Selectivity for hM1 vs. hM5 for CN1CCC=C(C(=O)OC(c2ccccc2)c2ccc(CO)cc2)C1 (stereo not drawn) [Compound 10c] .
1.0

Recall and state the measured x-Fold Selectivity for hM1 vs. hM5 for CN1CCC=C(C(=O)OCc2cccc(O)c2)C1 [Compound 18b] .
0.35

Recall and state the measured x-Fold Selectivity for hM1 vs. hM5 for CN1CCC=C(C(=O)OC(c2ccccc2)c2ccccc2)C1 .
4.5

Recall and state the measured x-Fold Selectivity for hM1 vs. hM5 for CN1CCC=C(C(=O)OCc2ccc(CO)cc2)C1 .
0.8

Recall and state the measured x-Fold Selectivity for hM1 vs. hM5 for CN1CCC=C(C(=O)OC(c2ccccc2)c2cccc(O)c2)C1 (stereo not drawn) [Compound 17b] .
2.0

Recall and state the measured x-Fold Selectivity for hM1 vs. hM5 for CN1CCC=C(C(=O)OCC(O)(c2ccccc2)c2ccccc2)C1 .
1.2
